molecular target: HIV-1 envelope glycoprotein gp120 (IIIB) (HIV-1 IIIB (HXB2 clone entry), UniProt P04578); test: SPR; gp120 (IIIB) coupled covalently to a CM5 chip; D7 or D7 mutants at 25 and 100 nM flowed over; Biacore X; 10 mM HEPES pH 7.5, 100 mM NaCl, 0.05% P20; 30 µl/min; association 3 min, dissociation 15 min; simultaneous fit of association and dissociation; conditions: both partners purified
EXPERIMENTAL_ENDPOINT: koff (s⁻¹)
Express the result in s⁻¹ but write the number alone.

| BINDER | UNITS_OF_MEASURE | koff |
| --- | --- | --- |
| llama heavy chain antibody fragment VHH D7, wild type (VHH, PDB 2xa3 holds D7 with the framework changes Val5Gln, Ala11Val, Ala61Val, Ala68Asp and Ser79Tyr against wild type D7) VHH: AVQLVESGGGLAQAGGSLRLSCTVSGRTSSSHDMGWFRQAPGKEREFVAAISWSGGTTNYADSVKGRFAISKDNAKNAVSLQMNSLKPEDTAVYYCAAKWRPLRYSDNPSNSDYNYWGQGTQVTVSS | s⁻¹ | 0.000551 |

Now turn to the next binder.
Task: Look up koff for this binder: VHH D7 Asn100D→Ala (VHH, PDB 2xa3 holds D7 with five framework changes) with the stated CDR3 mutation; Chothia numbering (100D is an insertion position)) VHH: AVQLVESGGGLAQAGGSLRLSCTVSGRTSSSHDMGWFRQAPGKEREFVAAISWSGGTTNYADSVKGRFAISKDNAKNAVSLQMNSLKPEDTAVYYCAAKWRPLRYSDAPSNSDYNYWGQGTQVTVSS
Result: 0.000128
